Data provenance is patent US20250171459A1.

I'd be grateful if you could share measured pIC50 for these entries.
Target: APOL1 (Homo sapiens, UniProt O14791)
Sequence (O14791 whole entry S342G/I384M, form open): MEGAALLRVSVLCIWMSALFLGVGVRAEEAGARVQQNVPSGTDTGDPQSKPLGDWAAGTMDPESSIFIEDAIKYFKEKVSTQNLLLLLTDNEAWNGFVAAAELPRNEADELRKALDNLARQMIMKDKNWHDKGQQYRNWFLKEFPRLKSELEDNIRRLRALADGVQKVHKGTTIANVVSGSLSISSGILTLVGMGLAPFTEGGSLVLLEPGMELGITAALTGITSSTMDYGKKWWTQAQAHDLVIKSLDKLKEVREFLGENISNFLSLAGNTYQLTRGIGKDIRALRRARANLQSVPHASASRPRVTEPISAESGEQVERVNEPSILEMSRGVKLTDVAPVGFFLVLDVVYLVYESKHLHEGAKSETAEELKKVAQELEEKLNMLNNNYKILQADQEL
Assay: MultiTox-Fluor Multiplex Cytotoxicity Assay in tet-inducible APOL1 T-REx-HEK293 cells (cell rescue, ratio of dead to live cells)
Settings: tet-inducible transgenic APOL1 T-REx-HEK293 cell lines, 50 ng/mL tet, 24 hours; read-out: IP50 (i.e., IC50 for cell proliferation)
Description: The MultiTox-Fluor Multiplex Cytotoxicity Assay is a single-reagent-addition, homogeneous, fluorescence assay that measures the number of live and dead cells simultaneously in culture wells. […] The MultiTox reagent was added to each well and placed back in the incubator for an additional 30 minutes. The plate was read on the EnVision plate reader. A ratio of dead to live cells was used to normalize, and data was imported, analyzed, and fit using Genedata Screener (Basel, Switzerland) software. […]
pIC50: −log10 of the molar value.

response.value for "CCc1cc2c(s1)CCOC21CCN(Cc2ccc(C(=O)Nc3ccnn3C)nc2)CC1" (field: pIC50) = > 7.00

response.value for "C[C@H]1C[C@@]2(CCN1Cc1ncc(NC(C)(C)CO)cn1)OCCc1cc(CC(F)F)sc12" (field: pIC50) = > 7.00

response.value for "C[C@H]1C[C@@]2(CCN1Cc1cccc(Cl)c1O)OC[C@H](O)c1cc(Cl)sc12" (field: pIC50) = 6.00 to 6.30

response.value for "C[C@H]1C[C@@]2(CCN1Cc1ccnn1C)OCCc1cc(CC(F)F)sc12" (field: pIC50) = 6.30 to 7.00

response.value for "CCc1cc2c(s1)CCO[C@@]21CCN(Cc2cnn(CCO)c2)[C@@H](C)C1" (field: pIC50) = > 7.00

response.value for "CCc1cc2c(s1)CCO[C@@]21CCN(CC2CN(C(=O)c3ccnn3C)C2)[C@@H](C)C1" (field: pIC50) = > 7.00

response.value for "CCc1cc2c(s1)CCO[C@@]21CCN(Cc2cn(CC3(CCO)CC3)nn2)[C@@H](C)C1" (field: pIC50) = 6.30 to 7.00

response.value for CCc1cc2c(s1)CCOC21CCN(Cc2cn(CC3(C)COCCO3)nn2)C(C)C1 (centres unmarked) (field: pIC50) = > 7.00

----------
Molecular target: UniProt O14791
Assay: MultiTox-Fluor Multiplex Cytotoxicity Assay in tet-inducible APOL1 T-REx-HEK293 cells (cell rescue, ratio of dead to live cells)
Settings: tet-inducible transgenic APOL1 T-REx-HEK293 cell lines, 50 ng/mL tet, 24 hours; read-out: IP50 (i.e., IC50 for cell proliferation)
endpoint: IC50

response.value for C[C@H]1C[C@@]2(CCN1Cc1cnn(C)c1)OCC(O)c1cc(Cl)sc12 (mixture of isomers) [Compound 818] (field: IC50) = < 100 nM

response.value for CC1COC2(CCN(Cc3cn(CCS(C)(=O)=O)nn3)[C@@H](C)C2)c2cc(Cl)sc21 (stereo partly shown) [Compound 540] (field: IC50) = < 100 nM

response.value for CCc1cc2c(s1)CCO[C@@]21CCN([C@H]2C[C@@H](NC(=O)OC(C)(C)C)C2)[C@@H](C)C1 [Compound 298] (field: IC50) = 500 to 1000 nM

response.value for CCc1cc2c(s1)CCO[C@@]21CCN(Cc2cn([C@@H]3CCN(C(=O)OC(C)(C)C)C3)nn2)[C@@H](C)C1 [Compound 15] (field: IC50) = 100 to 500 nM
